# ASSAY_METHOD_TEXT: activity coefficient (dimensionless); of the first substance listed, at infinite dilution; xn = mol fraction of the nth substance listed
# PARTICULARS: 378.15 K; 101 kPa; Liquid; Chromatography; x1 = 0
Measured activity coefficient values are reported for all entries that follow.

Observe how each entry below is paired with its result.
[
  {
    "COMPOUND": "c1ccsc1 [thiophene] + CCCCn1cc[n+](C)c1.[Cl-]",
    "RECORDED_VALUE": 2.27
  },
  {
    "COMPOUND": "Cc1cccc(C)c1 [1,3-dimethylbenzene] + CCCCn1cc[n+](C)c1.COP(=O)([O-])OC",
    "RECORDED_VALUE": 6.73
  },
  {
    "COMPOUND": "CCOC(C)(C)C [2-ethoxy-2-methylpropane] + CCCCn1cc[n+](C)c1.CS(=O)(=O)[O-]",
    "RECORDED_VALUE": 36.1
  },
  {
    "COMPOUND": "C#CCCCCC [1-heptyne] + CCCCn1cc[n+](C)c1.CS(=O)(=O)[O-]",
    "RECORDED_VALUE": 13.3
  },
  {
    "COMPOUND": "CCOCC [diethyl ether] + CCCCn1cc[n+](C)c1.COP(=O)([O-])OC",
    "RECORDED_VALUE": 6.39
  },
  {
    "COMPOUND": "C1CCCCCCC1 [cyclooctane] + CCCCn1cc[n+](C)c1.COP(=O)([O-])OC",
    "RECORDED_VALUE": 17.7
  },
  {
    "COMPOUND": "CC(C)OC(C)C [diisopropyl ether] + CCCCn1cc[n+](C)c1.COP(=O)([O-])OC",
    "RECORDED_VALUE": 14.2
  },
  {
    "COMPOUND": "CC#N [acetonitrile] + CCCCn1cc[n+](C)c1.COP(=O)([O-])OC",
    "RECORDED_VALUE": 0.95
  }
]

Here is the next item to consider.
Would you kindly share the measured activity coefficient for CCc1ccccc1 [ethylbenzene] + CCCCn1cc[n+](C)c1.[Cl-] ?
13.5

----------
# ASSAY_METHOD_TEXT: activity coefficient (dimensionless); of the first substance listed, at infinite dilution; xn = mol fraction of the nth substance listed
# PARTICULARS: 388.15 K; 101 kPa; Liquid; Chromatography; x1 = 0
RECORDED_METRIC: activity coefficient
Give only the figure.

Observe how each entry below is paired with its result.
[
  {
    "COMPOUND": "CCC(=O)OC [methyl propanoate] + CCCCn1cc[n+](C)c1.COP(=O)([O-])OC",
    "activity coefficient": 3.93
  },
  {
    "COMPOUND": "c1ccsc1 [thiophene] + CCCCn1cc[n+](C)c1.CS(=O)(=O)[O-]",
    "activity coefficient": 2.05
  }
]

Would you kindly share the measured activity coefficient for c1ccccc1 [benzene] + CCCCn1cc[n+](C)c1.CS(=O)(=O)[O-] ?
3.46

Would you kindly share the measured activity coefficient for CC1CCCCC1 [methylcyclohexane] + CCCCn1cc[n+](C)c1.CS(=O)(=O)[O-] ?
50.4

Would you kindly share the measured activity coefficient for CCCC(C)=O [pentan-2-one] + CCCCn1cc[n+](C)c1.CS(=O)(=O)[O-] ?
4.91

Would you kindly share the measured activity coefficient for C#CCCCCCC [1-octyne] + CCCCn1cc[n+](C)c1.[Cl-] ?
20.4

Would you kindly share the measured activity coefficient for CCCOCCC [dipropyl ether] + CCCCn1cc[n+](C)c1.[Cl-] ?
51.9

Would you kindly share the measured activity coefficient for c1ccncc1 [pyridine] + CCCCn1cc[n+](C)c1.COP(=O)([O-])OC ?
1.35

Would you kindly share the measured activity coefficient for CCC(C)(C)OC [2-methoxy-2-methylbutane] + CCCCn1cc[n+](C)c1.CS(=O)(=O)[O-] ?
25.3

----------
Measured activity coefficient values are reported for all entries that follow.
# ASSAY_METHOD_TEXT: activity coefficient (dimensionless); of the first substance listed, at infinite dilution; xn = mol fraction of the nth substance listed
# PARTICULARS: 358.15 K; 101 kPa; Liquid; Chromatography; x1 = 0
Give only the figure.

Would you kindly share the measured activity coefficient for C#CCCCC [1-hexyne] + CCCCn1cc[n+](C)c1.CS(=O)(=O)[O-] ?
8.02

Would you kindly share the measured activity coefficient for C1COCCO1 [1,4-dioxane] + CCCCn1cc[n+](C)c1.[Cl-] ?
3.47

Would you kindly share the measured activity coefficient for CC1CCCCC1 [methylcyclohexane] + CCCCn1cc[n+](C)c1.CS(=O)(=O)[O-] ?
52.8

Would you kindly share the measured activity coefficient for CC#N [acetonitrile] + CCCCn1cc[n+](C)c1.COP(=O)([O-])OC ?
0.88

Would you kindly share the measured activity coefficient for CCC(C)(C)OC [2-methoxy-2-methylbutane] + CCCCn1cc[n+](C)c1.CS(=O)(=O)[O-] ?
23.8

----------
# ASSAY_METHOD_TEXT: activity coefficient (dimensionless); of the first substance listed, at infinite dilution; xn = mol fraction of the nth substance listed
# PARTICULARS: 358.15 K; 101 kPa; Liquid; Chromatography; x1 = 0
Think of 3 as a floor: if activity coefficient stands on it or above, it is met; beneath it, not met.

[
  {
    "MOLECULE": "C=C(C)c1ccccc1 [(1-methylethenyl)benzene] + CCCCn1cc[n+](C)c1.CS(=O)(=O)[O-]",
    "CLASS": "met"
  },
  {
    "MOLECULE": "c1ccncc1 [pyridine] + CCCCn1cc[n+](C)c1.CS(=O)(=O)[O-]",
    "CLASS": "met"
  },
  {
    "MOLECULE": "c1ccsc1 [thiophene] + CCCCn1cc[n+](C)c1.COP(=O)([O-])OC",
    "CLASS": "not met"
  },
  {
    "MOLECULE": "c1ccncc1 [pyridine] + CCCCn1cc[n+](C)c1.COP(=O)([O-])OC",
    "CLASS": "not met"
  }
]

API: above_or_equal(metric=activity coefficient, cutoff=3) for item CCC[N+](=O)[O-] [1-nitropropane] + CCCCn1cc[n+](C)c1.[Cl-]
not met

----------
# ASSAY_METHOD_TEXT: activity coefficient (dimensionless); of the first substance listed, at infinite dilution; xn = mol fraction of the nth substance listed
# PARTICULARS: 418.15 K; 101 kPa; Liquid; Chromatography; x1 = 0
Label yes (1) when activity coefficient is strictly below 0.5; otherwise label no (0).

[
  {
    "COMPOUND": "CCCO [propan-1-ol] + CCCCn1cc[n+](C)c1.[Cl-]",
    "CLASS": "yes (1)"
  },
  {
    "COMPOUND": "CCO [ethanol] + CCCCn1cc[n+](C)c1.CS(=O)(=O)[O-]",
    "CLASS": "no (0)"
  },
  {
    "COMPOUND": "CC(C)O [propan-2-ol] + CCCCn1cc[n+](C)c1.CS(=O)(=O)[O-]",
    "CLASS": "no (0)"
  },
  {
    "COMPOUND": "CC(C)CO [2-methyl-1-propanol] + CCCCn1cc[n+](C)c1.COP(=O)([O-])OC",
    "CLASS": "yes (1)"
  }
]

Next item in the queue.
A record lists CCCO [propan-1-ol] + CCCCn1cc[n+](C)c1.CS(=O)(=O)[O-] . Is its activity coefficient below 0.5?
no (0)

----------
# ASSAY_METHOD_TEXT: activity coefficient (dimensionless); of the first substance listed, at infinite dilution; xn = mol fraction of the nth substance listed
# PARTICULARS: 428.15 K; 101 kPa; Liquid; Chromatography; x1 = 0
Think of 0.4 as a floor: if activity coefficient stands on it or above, it is 1; beneath it, -1.

[
  {
    "COMPOUND": "CO [methanol] + CCCCn1cc[n+](C)c1.[Cl-]",
    "CLASS": -1
  },
  {
    "COMPOUND": "CC(C)(C)O [2-methylpropan-2-ol] + CCCCn1cc[n+](C)c1.[Cl-]",
    "CLASS": 1
  },
  {
    "COMPOUND": "CC(C)CO [2-methyl-1-propanol] + CCCCn1cc[n+](C)c1.COP(=O)([O-])OC",
    "CLASS": -1
  },
  {
    "COMPOUND": "CCCO [propan-1-ol] + CCCCn1cc[n+](C)c1.[Cl-]",
    "CLASS": 1
  },
  {
    "COMPOUND": "CCCCO [butan-1-ol] + CCCCn1cc[n+](C)c1.CS(=O)(=O)[O-]",
    "CLASS": 1
  },
  {
    "COMPOUND": "CCO [ethanol] + CCCCn1cc[n+](C)c1.COP(=O)([O-])OC",
    "CLASS": -1
  },
  {
    "COMPOUND": "CCO [ethanol] + CCCCn1cc[n+](C)c1.[Cl-]",
    "CLASS": -1
  },
  {
    "COMPOUND": "CCO [ethanol] + CCCCn1cc[n+](C)c1.CS(=O)(=O)[O-]",
    "CLASS": 1
  },
  {
    "COMPOUND": "CO [methanol] + CCCCn1cc[n+](C)c1.CS(=O)(=O)[O-]",
    "CLASS": -1
  }
]

Next item in the queue.
API: above_or_equal(metric=activity coefficient, cutoff=0.4) for item O [water] + CCCCn1cc[n+](C)c1.CS(=O)(=O)[O-]
-1
